- System: MS2 coat protein
- MEASUREMENT NOTES: apparent Kd, MS2 coat protein; higher = weaker binding; RNA-MaP array
- CONDITION: ligand present: flavin mononucleotide; designed as: OFF switch for flavin mononucleotide
METRIC NAME: apparent Kd (nM)
Report the figure in nM without appending any unit label.

Some solved cases for reference:
{"columns": ["CHAIN SEQUENCE", "VALUE UNIT", "REPORTED"],
 "data": [
  ["UGGGAACGAGGAUAUACAUGAGGAUCACCCAUGUUCAAGAUUCGGGUAUAAUGCCUCAGUAGAAGGCGUAAGCA", "nM", 108],
  ["UGGAAUGUGCAAGGAUAUUGGCGGUGUGGAAUAGAAUCACUCGAACAUGAGGAUCACCCAUGUUGCAAGAAGGUGCGGGAACGA", "nM", 33.5],
  ["AUAAUCAAAGGAUAUGGCUAAGCACACAUGAGGAUCACCCAUGUGAUCGUUCGUACAGUUCCAGAAGGUUGGUCCA", "nM", 13.3],
  ["GAUGGUGUCAAGGAUAUUCCUAGCGGCUCGUUCGAAGAAGGUGAUACAUGAGGAUCACCCAUGUCCCUCCAUUU", "nM", 16.9]
]}

Return apparent Kd for the following sequence: `GAAUGUUGGAAGAAGGCACGCCCUGCAUGGCGGUGAGGAUAUUCCGUACUUGGAGUGGAAACAUGAGGAUCACCCAUGUAAGUA` 37

Return apparent Kd for the following sequence: `CUUACUCGUCUAGGAUAUCGAAUGCCAACAUGAGGAUCACCCAUGUGUGGGUUGAUCGUCUAGGCCGAGAAGGAGACUGCAAUC` 18.1

Return apparent Kd for the following sequence: `GACAGGAAAGGAUAUACAAAAUAGAUCAAACGCACACAAAGACAUGAGGAUCACCCAUGUAGAAGGUACUGACA` 9.76
